Tested on: HCC-2998 colon
Assay: NCI-60 one-dose screen, 48 h (100 = growth as untreated, 0 = no growth, -100 = all killed)
Settings: 10 µM unless noted
Protocol: Growth inhibition of the HCC-2998 human tumor cell line is measured as a screen for anti-cancer activity. Cells are grown in 96 well plates and exposed to the test compound for 48 hours. Compounds are tested at a single concentration, which is 10^-5 M for most compounds. The reported endpoint is percent growth (GI% or GIPRCNT), where numbers from 0 - 100% represent growth inhibition, and numbers from -100% - 0 represent cell death. For example, a value of 40 represents 60% growth inhibition. […]
This is part of a sample that, as a whole, favours compounds with a hit. Of some 83,000 tested, about 20% had one in any assay.
measurement_label: growth (%)
Lab book: enter the figure in %, no units written.

Below, each entry is followed by its recorded growth result.
Data request: Fill in the recorded growth for this compound, with HCC-2998 colon as test system: CCCCCC/C=N/Nc1ccc([N+](=O)[O-])cn1
Data returned: 85.9

Data request: // query: O=C(NCCNc1nccc(-c2c(-c3cccc(O)c3)nc3sccn23)n1)Nc1cccc(C(F)(F)F)c1
Data returned: 23

New cases:
Data request: Fill in the recorded growth for this compound, with HCC-2998 colon as test system: COc1cc(Nc2ncccc2C(=O)Nc2nc3ccc(F)cc3s2)cc(OC)c1OC
Data returned: 84.7

Data request: // query: Cc1ccc2c(c1)Nc1ccc(C)cc1C2(C)C
Data returned: 104

###

Test system: KM12 colon
Assay: NCI-60 one-dose screen, 48 h (100 = growth as untreated, 0 = no growth, -100 = all killed)
Conditions: 10 µM unless noted
The panel holds about 83,000 compounds, 20% with a hit somewhere; the sample as a whole holds those more often. Calls of active or inactive are those of the source. Rule for the calls: active = growth percent below 10; inactive = the rest.
measurement_label: growth

Data request: May I ask what growth has been recorded for Clc1ccc2c(NCCNc3nc(Cl)nc4ccccc34)ccnc2c1 ?
Data returned: -76.5% (active)

Data request: // query: CCNC(=O)Oc1ccc(/C(=C(/CC)Cc2ccccc2)c2ccc(OCCN3CCOCC3)cc2)cc1
Data returned: 37.3% (inactive)

Data request: // query: c1ccc([Se]CCCN2CCN(CCC[Se]c3ccccc3)CC2)cc1
Data returned: 109% (inactive)

Now let's try a different one.
Data request: May I ask what growth has been recorded for COc1ccc(-c2cnc(-c3ccc(F)cc3)[nH]2)cc1 ?
Data returned: 30.6% (inactive)

###

System: MCF7 breast
Experiment: NCI-60 one-dose screen, 48 h (100 = growth as untreated, 0 = no growth, -100 = all killed)
Conditions: 10 µM unless noted
Compounds without any hit were thinned out: in the full panel of roughly 83,000, 20% have a hit.
growth values for the compounds below.
Lab book: enter the figure in %, no units written.

Below, each entry is followed by its recorded growth result.
Data request: May I ask what growth has been recorded for COc1cc(NC(C)CCCN2C(=O)c3ccccc3C2=O)c2nccc(C)c2c1OC (configuration not stated) ?
Data returned: 40.4

Data request: // query: Cc1c(NC(=O)c2sc3nc4c(cc3c2N)CN(Cc2ccccc2)CC4)cccc1C(F)(F)F
Data returned: 16.4

Data request: // query: Cc1ccc(-c2cn3cc([N+](=O)[O-])ccc3n2)cc1
Data returned: 34.8

New cases:
Data request: May I ask what growth has been recorded for Cc1ccc2nc(-c3ccc(-n4on4-c4ccc(/C=C/c5ccc(-n6on6-c6ccc(-c7nc8ccc(C)cc8s7)cc6)cc5S(=O)(=O)O)c(S(=O)(=O)O)c4)cc3)sc2c1 ?
Data returned: 110

Data request: // query: O=c1[nH]ccc2nc(N3CCC(O)CC3)nc(Nc3cccc(C(F)(F)F)c3)c12
Data returned: 22.4

###

growth values for the molecules below.
System: NCI-H226 lung
Assay: NCI-60 one-dose screen, 48 h (100 = growth as untreated, 0 = no growth, -100 = all killed)
Settings: 10 µM unless noted
The panel holds about 83,000 compounds, 20% with a hit somewhere; the sample as a whole holds those more often.
Lab book: enter the figure in %, no units written.

Data request: May I ask what growth has been recorded for COc1ccc(-c2c(C#N)cnc(N)c2-c2nc3cc(C)c(C)cc3[nH]2)cc1 ?
Data returned: 99.3

Data request: // query: Cc1ccccc1C[P+](c1ccccc1)(c1ccccc1)c1ccccc1
Data returned: 32.9

Data request: // query: COc1ccc(/C=N/C2=NNC(C)(c3ccccc3O)N2C(Cc2c[nH]c3ccccc23)C(=O)O)cc1 (centres undefined)
Data returned: 53.2

Data request: // query: CC(=O)Nc1ccc([I+]c2ccc([N+](=O)[O-])cc2)cc1
Data returned: 79.9

Data request: // query: COc1ccc(OC)c(NCC(=O)n2nc(/C=C\c3ccc(O)c(OC)c3)cc2/C=C\c2ccc(O)c(OC)c2)c1
Data returned: 29

New cases:
Data request: May I ask what growth has been recorded for Oc1ccccc1/C=N/c1ccccn1 ?
Data returned: 107

###

growth values for the compounds below.
Tested on: HCT-116 colon
Experiment: NCI-60 one-dose screen, 48 h (100 = growth as untreated, 0 = no growth, -100 = all killed)
Conditions: 10 µM unless noted
Description: Growth inhibition of the HCT-116 human tumor cell line is measured as a screen for anti-cancer activity. Cells are grown in 96 well plates and exposed to the test compound for 48 hours. Compounds are tested at a single concentration, which is 10^-5 M for most compounds. The reported endpoint is percent growth (GI% or GIPRCNT), where numbers from 0 - 100% represent growth inhibition, and numbers from -100% - 0 represent cell death. For example, a value of 40 represents 60% growth inhibition. […]
About 83,000 compounds went through this panel and 20% of them were active in at least one assay; those are over-represented in the sample as a whole.
Lab book: enter the figure in %, no units written.

Below, each entry is followed by its recorded growth result.
Data request: May I ask what growth has been recorded for Nc1nc(-c2cc3c(cc2Cl)NC(=O)/C3=C/c2ccc(Cl)cc2)cs1 ?
Data returned: 24.2

Data request: // query: Nc1nccc2c1ccn2-c1ccc(NC(=O)Nc2cccc(C(F)(F)F)c2)cc1
Data returned: 76.8

Data request: // query: C[C@H]1C=C(C[C@@H](O)CC#CC#CCCCCC[C@@H](O)[C@H]2CCC(=O)O2)C(=O)O1
Data returned: 83.2

Data request: // query: CN(C)c1ccc(/C=N/N=C(N)N)cc1
Data returned: 52.8

Data request: // query: Nc1nccc(=S)[nH]1
Data returned: 109

New cases:
Data request: May I ask what growth has been recorded for O=[N+]([O-])c1ccccc1NC1c2ccccc2Oc2ccccc21 ?
Data returned: 30.3

Data request: // query: Nc1nc(Cl)cc(NCc2ccc(CNc3cc(Cl)nc(N)n3)cc2)n1
Data returned: 83.3

###

Tested on: A498 renal
Experiment: NCI-60 one-dose screen, 48 h
Conditions: 10 µM unless noted
Compounds without any hit were thinned out: in the full panel of roughly 83,000, 20% have a hit. Calls of active or inactive are those of the source. How the source made its calls: active means growth percent below 10; inactive means the rest.
One label from this list, please: active, inactive

Data request: Field: outcome | Entry: Nc1ncnc2c1c(-c1ccc(Oc3ccccc3)cc1)nn2C[C@@H]1SSC[C@H]1O
Data returned: active

Data request: // query: S=c1n(CNc2ccc(Cl)nn2)nc(-c2cc(Cl)cc(Cl)c2Cl)n1/N=C/c1ccc(Cl)cc1
Data returned: inactive

Data request: // query: c1ccc2c(c1)Oc1cccnc1-n1nccc1-2
Data returned: inactive

New cases:
Data request: Field: outcome | Entry: COc1ccc(CCNC=O)cc1OC
Data returned: inactive

Data request: // query: CC(C)C1(C(C)C)NC(=O)NC1=O
Data returned: inactive

Data request: // query: COc1cc(C(=O)NNC(=O)c2ccccc2O)cc(OC)c1OC
Data returned: inactive

Data request: // query: COc1cccc(C2CC(c3cc(OC)c(OC)c(OC)c3)=NN2)c1 (stereo not drawn)
Data returned: inactive

Data request: // query: CC(/C=C/C=C(\C)[C@H](O)[C@H](C)C(=O)O[C@H]1C[C@H](C)C=C2C=C[C@@]3(C)O[C@@H](O)CC(=O)[C@]3(C)[C@H]21)=C\C=C\C(=O)O
Data returned: active

###

growth values for the compounds below.
Test system: COLO 205 colon
Assay: NCI-60 one-dose screen, 48 h (100 = growth as untreated, 0 = no growth, -100 = all killed)
Settings: 10 µM unless noted
The panel holds about 83,000 compounds, 20% with a hit somewhere; the sample as a whole holds those more often. Activity calls are given as the source filed them. Rule for the calls: active = growth percent below 10; inactive = the rest.

Below, each entry is followed by its recorded growth result.
Data request: Fill in the recorded growth for this compound, with COLO 205 colon as test system: CC(/C=C/C=C(\C)[C@H](O)[C@H](C)C(=O)O[C@H]1C[C@H](C)C=C2C=C[C@@]3(C)O[C@@H](O)CC(=O)[C@]3(C)[C@H]21)=C\C=C\C(=O)O
Data returned: -55.9% (active)

Data request: // query: CCOC(=O)C(C)(CSSCC(C)(NC(=O)c1ccc2ccccc2c1)C(=O)OCC)NC(=O)c1ccc2ccccc2c1 (centres undefined)
Data returned: 121% (inactive)

Now let's try a different one.
Data request: Fill in the recorded growth for this compound, with COLO 205 colon as test system: N#CC(C#N)=C(C#N)c1c[nH]c2ccccc12
Data returned: 73.8% (inactive)

From: PubChem BioAssay (NCI)
